System: Mus musculus
Assay: Anticonvulsant activity in ip dosed CF1 mouse assessed as protection against maximal electroshock-induced seizure after 30 mins
Type: functional
Conditions: 0.5 h
property_measured: ED50

Consider the worked cases shown below.
CCC(NC(C)=O)C(=O)NCc1ccccc1 (racemic)	< 100 mg/kg
CC(=O)NC(CO)C(=O)NCc1ccccc1 (racemic)	< 100 mg/kg

Find ED50 for CC(=O)NC(CN1CCOCC1)C(=O)NCc1ccccc1 (racemic) on Mus musculus and write it down.
< 100 mg/kg

###

Assay: Neurotoxicity in ip dosed NMRI mouse assessed as minimal motor impairment after 30 mins
Assay type: toxicity, organism-based
Settings: in vivo
Hi there, I'd appreciate the recorded TD50 at 0.5 h for every entry that follows.

C[C@H](N)C(=O)NCc1ccccc1	> 300 mg/kg
CC(=O)NC(CN1CCOCC1)C(=O)NCc1ccccc1 (racemic)	300 mg/kg
CC(=O)N[C@H](C)C(=O)NCc1ccccc1	210 mg/kg
COC[C@H](NC(C)=O)C(=O)NCc1ccccc1	> 300 mg/kg
CC(N)C(=O)NCc1ccccc1 (racemic)	> 300 mg/kg

# context switch: different compound, same TD50 at 0.5 h
Tell us which TD50 at 0.5 h value is on record for CC(=O)NC(CN)C(=O)NCc1ccccc1 (racemic)
> 100 mg/kg

###

Tested on: Mus musculus
Assay: Anticonvulsant activity in ip dosed CF1 mouse assessed as protection against maximal electroshock-induced seizure after 30 mins
Type: functional
Details: 0.5 h
property_measured: ED50

Before answering, review these 2 worked examples.
CC(=O)N[C@@H](C(=O)NCc1ccccc1)C(C)C	< 100 mg/kg
C=CCOCC(NC(C)=O)C(=O)NCc1ccccc1 (racemic)	< 30 mg/kg

Quick one: give measured ED50 for CC(=O)N[C@@H](C(=O)NCc1ccccc1)C(C)(C)C
> 300 mg/kg

Attribution: ChEMBL document CHEMBL2146408
